# procedure-details: yeast display, Sf9 membrane polyspecificity reagent, FACS + sequencing; frameworks hold sequencing errors
measured-parameter: polyreactivity (PSR sort gate)

Some sequences with known polyreactivity (PSR sort gate) results, for comparison:
>>> result("QVQLVESGGGLVQAGGSLRLSCAASGSIFSNYAMGWYRQAPGKERELVAAITLSSGGTYYADSVKGRFTISRDNAKNTVYLQMNSLKPEDTAVYYCAAQYKYFKHRYYYWGQGTQVTVSS")
"high polyreactivity"
>>> result("QVQLVESGGGLVQAGGSLRLSCAASVRTFDSYTMGWYRPAPGKERELVAAIRSSGGRTYADSVKGRFTISRDNAKNTVYLQMNSLKPEDTAVYYCAAARSYWAKYYYWGQGTQVTVSS")
"high polyreactivity"
>>> result("QVQLVESGGGLVQAGGSLRLSCAASGSTFGINTMGWYRQAPGKERELVASINRGGTTNYADSVKGRFTISRDNAKNTVYLQMNSLKPEDTAVYYCNARYYVTRLSRFRYGYWGQGTQVTVSS")
"high polyreactivity"
>>> result("QVQLVESGGGLVQAGGSLRLSCAASGFTFYLYTMGWYRQAPGKERELVATINSDGGTNYADSVKGRFTISRDNAKNSVYLQMNSLKPEDTAVYYCNAASRRGSRKQAKYEYWGQGTQVTVSS")
"low polyreactivity"

Query string: Give the measured polyreactivity (PSR sort gate) of "QVQLVESGGGLVQAGGSLRLSCAASGYIFDPNAMGWYRQAPGKERELVAAISGSGTSTYYADSVKGRFTISRDNAKNTVYLQMNSLKPEDTAVYYCAAAHDAGPVRYYYWGQGTQVTVSS" .
Result string: low polyreactivity

Query string: Give the measured polyreactivity (PSR sort gate) of "QVQLVESGGGLVQAGGSLRLSCAASGFTYPANAMGWYRQAPGKERELVASISGSGGRTYYADSVKGRFTISRDNAQNTVYLQMNSLKPEDTAVYYCNRYSYWYRGEYGYWGQGTQVTVSS" .
Result string: high polyreactivity

Query string: Give the measured polyreactivity (PSR sort gate) of "QVQLVESGGGLVQAGGSLRLSCAASGSTYSYYTMGWYIQAPGKERELVATISRRGASTYYADSVKGRFTISRDNAKNTVYLQMNSLKPEDTAVYYCAKSYYYGRSATRPEYDYWGQGTQVTVSS" .
Result string: high polyreactivity

* * *

# procedure-details: yeast display, Sf9 membrane polyspecificity reagent, FACS + sequencing; frameworks hold sequencing errors
measured-parameter: polyreactivity (PSR sort gate)

>>> result("QVQLQESGGGLVQAGGILRLSCAACGNIFPSAVMGWYRQALGKEREFVATINSGSNTYYADSVKGRFTISRDNAKNTVYLQMNSLNLEDNAVYYCAAYFKLPAWHTYWGQGTQVTVSS")
"low polyreactivity"
>>> result("QVQLVESGGGLVQAGGSLRLSCAASGSILGYYAMGWYRQAPGKERELVAAISSGGSTNYADSVKGRFTISRDNAKNTVYLQMNSLKPEDTAVYYCAADRTYHGGFDYWGQGTQVTVSS")
"low polyreactivity"
>>> result("QVQLVESCGGLVQAGGSLRLSCAASGRTFFGYAMGGYRQAPGKERELVAAINWGGASTYYADSVKGRFTISRDNAKNTVYLQMNSLKPEETAVYYCAADSVPSRPTYGRYDYWGQGTQVTVSS")
"low polyreactivity"

* * *

# procedure-details: yeast display, Sf9 membrane polyspecificity reagent, FACS + sequencing; frameworks hold sequencing errors
measured-parameter: polyreactivity (PSR sort gate)

>>> result("QVQLVESGGGLVQAGGSLRLSCAASGRTFRIYAMGWYRQAPGKERELVAAIRWSGGTTYYADSVKGGFTISRDNAKNTVYLQMNSLNPDDTAVYYCAADSTNRYDYWGQGTQVTVSS")
"high polyreactivity"
>>> result("QVQLVESGGGIVQAGGSLRLSCAASGSNFVVNAMGWYRQAPGKERELVAAITQSGGSTFYADSVKGRFTISRDNAKNTVYLQMNSLIPEDTAVYYWGQGTQVTVSS")
"low polyreactivity"
>>> result("QVQLEESGGGLVQAGGSLRLSCAASGFTFSPNAMGWYRQAPGKVRELVAAIDWIGGSTYYADSVKWRFTISRDNAKNTVYLQMKSLNTEDTAVYLCTADWVYWHYLTYLVTFDYWGQGTQVTVSS")
"low polyreactivity"
>>> result("QVQLVESGGGLVQAGGSLRLSCAASGSIFTRYAMGWYRQAPGKERELVATISKRSGSTYYADSVKGRFTISRDNAKNTVYLQMISLKPEDTAVYYCAARNSGRVKYGYWGQGSQVTVSS")
"high polyreactivity"

Query string: Give the measured polyreactivity (PSR sort gate) of "QVQLVESGGGLVQAGGSLRLSCAASGSTFRYYAMGWYRQAPGKERELVAAISKSGGRTYYADSVKGRFTISRDNAKNTVYLEMNSLKPEDTAVYYCAADCVARYQKGQYDYWGQGTQVTVSS" .
Result string: high polyreactivity

* * *

# procedure-details: yeast display, Sf9 membrane polyspecificity reagent, FACS + sequencing; frameworks hold sequencing errors
measured-parameter: polyreactivity (PSR sort gate)

>>> result("QVQLVESGGGLVQAGGSLRLSCAASGSISTPYTMGWYRQAPGKERELVAAISWIGDTTSYADSVKGRFTISRDNAKNTVYLQMHSLKPEETAVYYCNAEHRGYDYWGQGTQVTVSS")
"low polyreactivity"
>>> result("QVQLVESGGGLVQAGGSLRLSCAASGFTFLNYAMGWYRQAPGKERELVAAITRSGGSTYYADSVKGRFTISRDTAKNTVYLQMNSLKPEDTAVYYCAIGYYSPNYYYWGQGTQVTVSS")
"high polyreactivity"
>>> result("QVQLVESGGGLVQAGGSLRLSCAASGRIFNVYAMGWYRPAPGTERELVAAIRRRGDRTYYADSVKGRFTLSRDNAKNTVYLQMNSLNPEDTADYYCAKSQSAKGGYDYWGQGTQVTVSS")
"high polyreactivity"
>>> result("QVQLQESAAGLVQAGGGLRLSCPASGTISGPHVMGWYRQSPGKEREFVAAINVGANTYYADNVKGRFTISRDNAKNTVYLQMNSLKPEDTGVYYCAAVYYGDIGHEYWGQGTQVTVSC")
"low polyreactivity"
>>> result("QVQLVESGGGLVQAGGSLRLSCAASGRTFYRNAMGWYRQAPGKERELVAAISRSGGRTYYADSVKGRFTISRDNAKNTVYLHMNSLKPEDTAVYYCNAQPTLAVADYDYWGQGTQVTVSS")
"high polyreactivity"

From here, focus on the item given below.
Query string: Give the measured polyreactivity (PSR sort gate) of "QVQLVESGGGLVQAGGSLRLSCAASGSTIDPYGMGWYRQAPGKERELVAAITSSGRTNYADSVKGRFTISRDNAKNTVYLQMNSLKPEDTAVYYCNVQTYVELRLDYWGQGTQVTVSS" .
Result string: low polyreactivity

* * *

# procedure-details: yeast display, Sf9 membrane polyspecificity reagent, FACS + sequencing; frameworks hold sequencing errors
measured-parameter: polyreactivity (PSR sort gate)

Some sequences with known polyreactivity (PSR sort gate) results, for comparison:
>>> result("QVQLVESGGGLVQAGGSLRLSCAASGIIFRGYAMGWYRQAPGKERELVARISITGGRTYYADSVKGRFTISRDNAKNTVYLQMNSLKPEDTAVYYCAAGKYVRTVRYDYWGQGTQVTVSS")
"high polyreactivity"
>>> result("QVQHVESGGGLVQAGGSLRLSSAASGFTFSRNAMGWYRQAPGKERELVAAIDSGGSTDYADSVKGRFTISRDNAKNTVYLQMNSLKPEDTAVYYCNVDGYYLFVRGYEYWGQGTQLTVSS")
"low polyreactivity"
>>> result("QVQLVESGGGLVQAGGSLRLSCAASGRTFYFYVKGWYRQAPAKERELVARISWSGGSTYYADSVKGRFTISRDNAKNTVYLQMNSLKPEDTAVYYCARQYIYPSSGEYDSWGQGTQVTVSS")
"low polyreactivity"
>>> result("QVQLVESGGGLVQAGGSLRLSCAASGSTFTGNAMGWYRQAPGKERELVASINGSSGSTYYADSVKGRFTISRDNAKNTVYLQMNSLKPEDTAVYYGAKDSFLHFPRVGWVGLEYWGQGTQVTVSS")
"low polyreactivity"
>>> result("QVQLVESGGGLVQAGGSLRLSCAASGSIFPGNAMGGYRQAPGKERELVAAIRGGGSTNYADSVKGRFTISRDTAKNTVYIQMNSLKPEDTAVYYCAAQGILGSYDYWGQGTQVTVSS")
"low polyreactivity"
>>> result("QVQLVESGGGLFQAGGSLRLSCDPSGSIFEYYAMGWYRQAPGKERELVAAITQSGGSTYYADSVKGRFHKFTRQCEEYRLFPDEQPETGRYRGISLAADAECYQNDYALDYWGQGTQVTVSS")
"low polyreactivity"
>>> result("QVQLVESGGGIVQAGGSLRLSCAASGRTFRINGMGWYRQAPGKERELIAAISDGGSTNYADSVKGRFTISRDNAKNTVYLQMNSLKPEDTAVYYCAVDPYYFFYDEWLGDPNFDYWGQGTQVTVSS")
"low polyreactivity"
>>> result("QVQLVESGGGLVQAGGSLRLSCAASGRIFGLYAMGWYRQAPGKERELVAAISRRGGTTYYADSVKGRFTISRDNAKNTVYLQMNSLKPEDTAVYYCAAATVYLSWYYWGQGTQVTVSS")
"high polyreactivity"
>>> result("QVQLVESGGGLVQAGGSLRLSCAASGSIFERYDMGWYRQAPGKERELVAAITSAGITYYADSVKGRFTISRDNAKNTVYLQMNSLKPEDTAVYYCAAQGRRGAPYRHVIEGDYWGQGTQVTVSS")
"low polyreactivity"
>>> result("QVQHVESGGGLVQAGGSLRLSCAASGFTLFWNDMGWYRQAPGKERELVAAITSGDDTYADSVKGRFTISRDNAKNTVYLQMNSLKPEDTAVYYCNKDDPLRNVAQVILYEFYYWGQGTQVTVSS")
"low polyreactivity"

From here, focus on the item given below.
Query string: Give the measured polyreactivity (PSR sort gate) of "QVQLVESGGGLVQAGGSLRLSCAASGFTFGVYARGWYRQAPGKERELVAAISRSSGRTYYADSVKWRFTISRDNAKNTVYLQMNSLKPEDTAVYYCAADLRYYGYYTRFRYYEMDYWGQGTQVTVSS" .
Result string: high polyreactivity
